- testedTarget: FP505 (ICP4 residues 210-490 DNA-binding/dimerization domain fusion) (Herpes simplex virus 1)
- Sequence: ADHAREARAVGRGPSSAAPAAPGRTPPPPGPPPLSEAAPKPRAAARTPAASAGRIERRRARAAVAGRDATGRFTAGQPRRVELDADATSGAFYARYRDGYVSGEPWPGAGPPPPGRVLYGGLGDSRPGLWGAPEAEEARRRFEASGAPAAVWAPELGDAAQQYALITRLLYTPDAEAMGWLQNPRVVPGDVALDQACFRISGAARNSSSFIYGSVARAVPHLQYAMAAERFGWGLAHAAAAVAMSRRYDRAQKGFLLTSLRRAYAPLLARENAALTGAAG
- assayDetails: filter
- conditionSet: with tRNA; >11 nM without tRNA
experimentalEndpoint: Kd

What the record says about GGGAGGACAGTGCGGNNNNNNNNNNNNNNNNNNNNNNNNNNNNNNNNNNNNNNNNCAGTGCGTCAGTCAAC [random ssDNA pool] : Kd is > 160 nM

Attribution: patent US5795721
